subject-of-test: delF508-CFTR (Homo sapiens, UniProt P13569, DEL508-508)
Construct: endogenous in cells; host or cells: CFBE41o- human CF bronchial epithelial cells (delF508 homozygous)
Sequence (P13569 with tags, fused parts or gaps DEL508-508): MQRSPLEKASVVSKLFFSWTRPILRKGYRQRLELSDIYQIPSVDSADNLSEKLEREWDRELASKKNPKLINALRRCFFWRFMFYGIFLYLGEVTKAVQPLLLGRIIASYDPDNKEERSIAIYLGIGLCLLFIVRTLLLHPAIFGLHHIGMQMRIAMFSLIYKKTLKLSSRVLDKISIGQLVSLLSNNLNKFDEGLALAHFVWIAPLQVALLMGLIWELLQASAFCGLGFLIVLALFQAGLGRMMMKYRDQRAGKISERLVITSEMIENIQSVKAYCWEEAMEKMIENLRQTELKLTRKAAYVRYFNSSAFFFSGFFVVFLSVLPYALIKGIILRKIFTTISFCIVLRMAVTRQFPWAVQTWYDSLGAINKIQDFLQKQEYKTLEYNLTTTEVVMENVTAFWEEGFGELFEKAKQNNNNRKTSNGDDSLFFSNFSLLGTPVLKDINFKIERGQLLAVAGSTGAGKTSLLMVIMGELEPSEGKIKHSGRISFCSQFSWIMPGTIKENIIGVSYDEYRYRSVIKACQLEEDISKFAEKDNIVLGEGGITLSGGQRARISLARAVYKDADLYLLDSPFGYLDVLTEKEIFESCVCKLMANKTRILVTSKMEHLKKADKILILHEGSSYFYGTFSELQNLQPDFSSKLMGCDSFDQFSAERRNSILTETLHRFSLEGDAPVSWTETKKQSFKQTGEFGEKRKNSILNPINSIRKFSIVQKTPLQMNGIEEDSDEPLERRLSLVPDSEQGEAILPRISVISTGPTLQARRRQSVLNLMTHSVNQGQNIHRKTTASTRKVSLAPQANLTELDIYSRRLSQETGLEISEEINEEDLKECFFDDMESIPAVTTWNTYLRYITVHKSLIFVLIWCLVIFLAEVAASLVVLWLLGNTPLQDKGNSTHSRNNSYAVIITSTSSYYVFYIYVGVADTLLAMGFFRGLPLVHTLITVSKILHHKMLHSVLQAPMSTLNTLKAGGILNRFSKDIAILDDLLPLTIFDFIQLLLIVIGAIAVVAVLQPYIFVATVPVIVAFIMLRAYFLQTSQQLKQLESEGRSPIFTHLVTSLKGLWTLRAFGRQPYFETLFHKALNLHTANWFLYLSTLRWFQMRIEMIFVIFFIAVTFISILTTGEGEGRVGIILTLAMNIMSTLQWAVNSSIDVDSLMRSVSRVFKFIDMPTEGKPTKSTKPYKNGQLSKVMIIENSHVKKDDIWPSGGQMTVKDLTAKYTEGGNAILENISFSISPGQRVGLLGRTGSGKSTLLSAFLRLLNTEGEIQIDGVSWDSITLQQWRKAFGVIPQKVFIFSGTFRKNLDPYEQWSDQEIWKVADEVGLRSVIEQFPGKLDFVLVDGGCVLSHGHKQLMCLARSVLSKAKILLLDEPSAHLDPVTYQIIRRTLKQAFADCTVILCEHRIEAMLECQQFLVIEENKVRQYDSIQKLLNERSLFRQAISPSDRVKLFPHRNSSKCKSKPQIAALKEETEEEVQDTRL
test-details: SPQ halide-sensitive fluorescence dye assay for rescue of halide efflux (8-point concentration-response)
Assay type: cell-based
run-parameters: CFBE41o- cells, 48 h; read-out: SPQ EC50
property: EC50 (µM)

{"columns": ["molecule", "EC50 (µM)"],
 "data": [
  ["CCOc1ccc(CN2CCN(c3nc4c(=O)n(C)c(=O)n(C)c4[nH]3)CC2)cc1 [Compound B-7.3]", 3.8],
  ["CCn1c(=O)c2c(nc3n(-c4ccc(C)cc4)c(C)c(C)n23)n(C)c1=O [Compound I-8]", 3.6]
]}

* * *

subject-of-test: delF508-CFTR (Homo sapiens, UniProt P13569, DEL508-508)
Construct: endogenous in cells; host or cells: CFBE41o- human CF bronchial epithelial cells (delF508 homozygous)
test-details: SPQ halide-sensitive fluorescence dye assay for rescue of halide efflux (8-point concentration-response)
Type: cell-based
run-parameters: CFBE41o- cells, 48 h
property: ΔSPQ (difference between maximum and minimum SPQ values) (RFU)

{"columns": ["compound", "units-symbol", "readout-value"],
 "data": [
  ["COc1cccc(N2CC(C)Cn3c2nc2c3c(=O)n(CCCO)c(=O)n2C)c1 (centres unmarked)", "RFU", 5748]
]}

P = C/C=C/Cn1c(=O)c2c(nc3n(C(C)CC)c(C)cn23)n(C)c1=O (centres unmarked)
Q = Cc1cccc(-n2c(C)c(C)n3c4c(=O)n(C)c(=O)n(C)c4nc23)c1
R = CCCCn1c(=O)c2c(nc3n(CCO)c(C)cn23)n(C)c1=O
S = C=C(C)CN1N=C(C)Cn2c1nc1c2c(=O)n(C)c(=O)n1C
T = CCCn1c(=O)c2c(nc3n(C(C)CC)c(C)cn23)n(C)c1=O (centres unmarked)
[ask] Put the entries in order of ΔSPQ (difference between maximum and minimum SPQ values), starting with the largest number. Answer by naming the labels in the order asked.
[reply] Q, T, P, S, R

1 = C/C=C/Cn1c(=O)c2c(nc3n2CC(C)=NN3C(C)C)n(C)c1=O
2 = CCn1c(=O)c2c(nc3n(-c4ccc(C)cc4)c(C)cn23)n(C)c1=O
[ask] Between 1 and 2 , whose recorded ΔSPQ (difference between maximum and minimum SPQ values) is greater? Select an item and report its label.
[reply] 1

* * *

subject-of-test: delF508-CFTR (Homo sapiens, UniProt P13569, DEL508-508)
Construct: endogenous in cells; host or cells: CFBE41o- human CF bronchial epithelial cells (delF508 homozygous)
test-details: SPQ halide-sensitive fluorescence dye assay for rescue of halide efflux (8-point concentration-response)
Assay type: cell-based
run-parameters: CFBE41o- cells, 48 h; read-out: SPQ EC50
property: EC50 (µM)

{"columns": ["compound", "subject-of-test", "EC50 [µM]"],
 "data": [
  ["C/C=C/Cn1c(=O)c2c(nc3n2CCN3Cc2ccco2)n(C)c1=O", "delF508-CFTR (Homo sapiens, UniProt P13569, DEL508-508)", 11],
  ["C=CCN1N=C(C)C(C)n2c1nc1c2c(=O)n(CCCC)c(=O)n1C (stereo not drawn)", "delF508-CFTR (Homo sapiens, UniProt P13569, DEL508-508)", 8.3],
  ["CC1CC(=O)c2cnc3c(c2C1)c(=O)[nH]c(=O)n3Cc1ccco1 (stereo not drawn)", "delF508-CFTR (Homo sapiens, UniProt P13569, DEL508-508)", 7.9],
  ["Cc1cc(C)cc(-n2c(C)cn3c4c(=O)n(CCCO)c(=O)n(C)c4nc23)c1", "delF508-CFTR (Homo sapiens, UniProt P13569, DEL508-508)", 13]
]}

P = CCn1c(=O)c2c(nc3n(-c4cccc(OC)c4)c(C)c(C)n23)n(C)c1=O
Q = C=CCn1c(=O)c2c(nc3n(-c4ccccc4C)c(C)c(C)n23)n(C)c1=O
[ask] # returns the entry with the larger EC50; inputs P and Q // output: label of the selected item
[reply] P
(P: 9.6 µM, Q: 3.8 µM)
